Each recorded value in this set is attributed to PubChem BioAssay AID1963449.

# viability, T/C values compiled below
Tested on: 596521-263-R-J1-PDC complex spheroid growth
Experiment: Anticancer human tumor 596521-263-R-J1-PDC patient-derived soft tissue sarcoma cell line growth inhibition [Asc]
Details: second compound 3 µM; first compound 3.16 µM; hits give low values
Excerpt: Multicellular complex tumor spheroid response to apoptosis pathway targeting inhibitors Alrizomadlin, Pelcitoclax, and Dasminapant in combination with a variety of drugs and investigational agents in selected tumor cell lines […] Compounds. […] If the clinical Cmax for an agent had not been determined, the highest concentration tested was 10 microM. […]
readout: viability, T/C (%)

[[record]]
compound = "O=C(c1cc(Cc2n[nH]c(=O)c3ccccc23)ccc1F)N1CCN(C(=O)C2CC2)CC1 + CCN1C(C(=O)NC23CCC(C(=O)O)(CC2)CC3)C(c2cccc(Cl)c2F)C2(C(=O)Nc3cc(Cl)ccc32)C12CCCCC2"
readout = "viability, T/C"
value_units = "%"
quantitative_readout = 72.5

[[record]]
compound = "C=CC(=O)N1CCN(c2nc(=O)n(-c3c(C)ccnc3C(C)C)c3nc(-c4c(O)cccc4F)c(F)cc23)C(C)C1 (centres undefined) + CCN1C(C(=O)NC23CCC(C(=O)O)(CC2)CC3)C(c2cccc(Cl)c2F)C2(C(=O)Nc3cc(Cl)ccc32)C12CCCCC2"
readout = "viability, T/C"
value_units = "%"
quantitative_readout = 89.4

[[record]]
compound = "C=C(F)C(=O)N1CCN(c2nc(OCC3CCCN3C)nc3c2CCN(c2cccc4cccc(Cl)c24)C3)CC1CC#N (centres undefined) + CCN1C(C(=O)NC23CCC(C(=O)O)(CC2)CC3)C(c2cccc(Cl)c2F)C2(C(=O)Nc3cc(Cl)ccc32)C12CCCCC2"
readout = "viability, T/C"
value_units = "%"
quantitative_readout = 75.5

[[record]]
compound = "C#Cc1c(F)ccc2cc(O)cc(-c3ncc4c(N5CC6CCC(C5)N6)nc(OCC56CCCN5CC(F)C6)nc4c3F)c12 (centres undefined) + CCN1C(C(=O)NC23CCC(C(=O)O)(CC2)CC3)C(c2cccc(Cl)c2F)C2(C(=O)Nc3cc(Cl)ccc32)C12CCCCC2"
readout = "viability, T/C"
value_units = "%"
quantitative_readout = 88.2


---

Tested on: 596521-263-R-J1-PDC complex spheroid growth
Test: Anticancer human tumor 596521-263-R-J1-PDC cell line growth inhibition [Asc];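 note: spheroids exposed to compounds for 7 days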
Conditions: second compound 0.0316 µM; first compound 3.16 µM; hits give low values
readout: viability, T/C (%)

[[record]]
molecule = "O=C(c1cc(Cc2n[nH]c(=O)c3ccccc23)ccc1F)N1CCN(C(=O)C2CC2)CC1 + Cc1c(S(C)(=O)=O)c(-c2cc(F)cc(N3CCN(c4ccc(NS(=O)(=O)c5ccc(NC(CCN6CCC(C(=O)OCCCP(=O)(O)O)CC6)CSc6ccccc6)c(S(=O)(=O)C(F)(F)F)c5)cc4)CC3)c2)c(-c2ccc(Cl)cc2)n1C(C)C"
quantitative_readout = 85.7

[[record]]
molecule = "C#Cc1c(F)ccc2cc(O)cc(-c3ncc4c(N5CC6CCC(C5)N6)nc(OCC56CCCN5CC(F)C6)nc4c3F)c12 (centres undefined) + CNC(C)C(=O)NC1CN(S(=O)(=O)c2cccc(S(=O)(=O)N3CCC4CCC(C(=O)NC(c5ccccc5)c5ccccc5)N4C(=O)C(NC(=O)C(C)NC)C3)c2)CCC2CCC(C(=O)NC(c3ccccc3)c3ccccc3)N2C1=O"
quantitative_readout = 90.6

[[record]]
molecule = "C#Cc1c(F)ccc2cc(O)cc(-c3ncc4c(N5CC6CCC(C5)N6)nc(OCC56CCCN5CC(F)C6)nc4c3F)c12 (centres undefined) + Cc1c(S(C)(=O)=O)c(-c2cc(F)cc(N3CCN(c4ccc(NS(=O)(=O)c5ccc(NC(CCN6CCC(C(=O)OCCCP(=O)(O)O)CC6)CSc6ccccc6)c(S(=O)(=O)C(F)(F)F)c5)cc4)CC3)c2)c(-c2ccc(Cl)cc2)n1C(C)C"
quantitative_readout = 111

[[record]]
molecule = "O=C(c1cc(Cc2n[nH]c(=O)c3ccccc23)ccc1F)N1CCN(C(=O)C2CC2)CC1 + CNC(C)C(=O)NC1CN(S(=O)(=O)c2cccc(S(=O)(=O)N3CCC4CCC(C(=O)NC(c5ccccc5)c5ccccc5)N4C(=O)C(NC(=O)C(C)NC)C3)c2)CCC2CCC(C(=O)NC(c3ccccc3)c3ccccc3)N2C1=O"
quantitative_readout = 54.6


---

# viability, T/C values compiled below
System: 596521-263-R-J1-PDC complex spheroid growth
Assay: Anticancer human tumor 596521-263-R-J1-PDC cell line growth inhibition [Asc];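 note: spheroids exposed to compounds for 7 days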
Settings: second compound 0.03 µM; first compound 0.00316 µM; hits give low values
readout: viability, T/C (%)

[[record]]
molecule = "CNC(C)C(=O)NC1CN(S(=O)(=O)c2cccc(S(=O)(=O)N3CCC4CCC(C(=O)NC(c5ccccc5)c5ccccc5)N4C(=O)C(NC(=O)C(C)NC)C3)c2)CCC2CCC(C(=O)NC(c3ccccc3)c3ccccc3)N2C1=O (stereo unspecified) + CCN1C(C(=O)NC23CCC(C(=O)O)(CC2)CC3)C(c2cccc(Cl)c2F)C2(C(=O)Nc3cc(Cl)ccc32)C12CCCCC2"
target_or_test_system = "596521-263-R-J1-PDC complex spheroid growth"
readout = "viability, T/C"
quantitative_readout = 96.4

[[record]]
molecule = "NC1CCC(NC2CC2c2ccccc2)CC1 (stereo unspecified) + CCN1C(C(=O)NC23CCC(C(=O)O)(CC2)CC3)C(c2cccc(Cl)c2F)C2(C(=O)Nc3cc(Cl)ccc32)C12CCCCC2"
target_or_test_system = "596521-263-R-J1-PDC complex spheroid growth"
readout = "viability, T/C"
quantitative_readout = 89.6

[[record]]
molecule = "O=C(c1ccc(F)c(F)c1Nc1ccc(I)cc1F)N1CC(O)([C@@H]2CCCCN2)C1 + CCN1C(C(=O)NC23CCC(C(=O)O)(CC2)CC3)C(c2cccc(Cl)c2F)C2(C(=O)Nc3cc(Cl)ccc32)C12CCCCC2"
target_or_test_system = "596521-263-R-J1-PDC complex spheroid growth"
readout = "viability, T/C"
quantitative_readout = 104

[[record]]
molecule = "Cn1ncnc1[C@H]1c2n[nH]c(=O)c3cc(F)cc(c23)N[C@@H]1c1ccc(F)cc1 + CCN1C(C(=O)NC23CCC(C(=O)O)(CC2)CC3)C(c2cccc(Cl)c2F)C2(C(=O)Nc3cc(Cl)ccc32)C12CCCCC2"
target_or_test_system = "596521-263-R-J1-PDC complex spheroid growth"
readout = "viability, T/C"
quantitative_readout = 100

[[record]]
molecule = "CCN1CCN(Cc2ccc(Nc3ncc(F)c(-c4cc(F)c5nc(C)n(C(C)C)c5c4)n3)nc2)CC1 + CCN1C(C(=O)NC23CCC(C(=O)O)(CC2)CC3)C(c2cccc(Cl)c2F)C2(C(=O)Nc3cc(Cl)ccc32)C12CCCCC2"
target_or_test_system = "596521-263-R-J1-PDC complex spheroid growth"
readout = "viability, T/C"
quantitative_readout = 92.6

[[record]]
molecule = "COc1c(OCCCN2CCOCC2)ccc2c3n(c(=NC(=O)c4cnc(N)nc4)nc12)CCN3 + CCN1C(C(=O)NC23CCC(C(=O)O)(CC2)CC3)C(c2cccc(Cl)c2F)C2(C(=O)Nc3cc(Cl)ccc32)C12CCCCC2"
target_or_test_system = "596521-263-R-J1-PDC complex spheroid growth"
readout = "viability, T/C"
quantitative_readout = 97.5


---

# viability, T/C values compiled below
Test system: 596521-263-R-J1-PDC complex spheroid growth
Test: Anticancer human tumor 596521-263-R-J1-PDC cell line growth inhibition [Asc];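 note: spheroids exposed to compounds for 7 days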
Conditions: second compound 0.1 µM; first compound 0.0316 µM; hits give low values
readout: viability, T/C (%)

[[record]]
compound = "C=CC(=O)N1CCN(c2nc(=O)n(-c3c(C)ccnc3C(C)C)c3nc(-c4c(O)cccc4F)c(F)cc23)C(C)C1 (stereo unspecified) + Cc1c(S(C)(=O)=O)c(-c2cc(F)cc(N3CCN(c4ccc(NS(=O)(=O)c5ccc(NC(CCN6CCC(C(=O)OCCCP(=O)(O)O)CC6)CSc6ccccc6)c(S(=O)(=O)C(F)(F)F)c5)cc4)CC3)c2)c(-c2ccc(Cl)cc2)n1C(C)C"
value_units = "%"
quantitative_readout = 87.3

[[record]]
compound = "O=C(c1cc(Cc2n[nH]c(=O)c3ccccc23)ccc1F)N1CCN(C(=O)C2CC2)CC1 + Cc1c(S(C)(=O)=O)c(-c2cc(F)cc(N3CCN(c4ccc(NS(=O)(=O)c5ccc(NC(CCN6CCC(C(=O)OCCCP(=O)(O)O)CC6)CSc6ccccc6)c(S(=O)(=O)C(F)(F)F)c5)cc4)CC3)c2)c(-c2ccc(Cl)cc2)n1C(C)C"
value_units = "%"
quantitative_readout = 96.3

[[record]]
compound = "O=C(c1ccc(F)c(F)c1Nc1ccc(I)cc1F)N1CC(O)([C@@H]2CCCCN2)C1 + CNC(C)C(=O)NC1CN(S(=O)(=O)c2cccc(S(=O)(=O)N3CCC4CCC(C(=O)NC(c5ccccc5)c5ccccc5)N4C(=O)C(NC(=O)C(C)NC)C3)c2)CCC2CCC(C(=O)NC(c3ccccc3)c3ccccc3)N2C1=O"
value_units = "%"
quantitative_readout = 73

[[record]]
compound = "COc1c(OCCCN2CCOCC2)ccc2c3n(c(=NC(=O)c4cnc(N)nc4)nc12)CCN3 + Cc1c(S(C)(=O)=O)c(-c2cc(F)cc(N3CCN(c4ccc(NS(=O)(=O)c5ccc(NC(CCN6CCC(C(=O)OCCCP(=O)(O)O)CC6)CSc6ccccc6)c(S(=O)(=O)C(F)(F)F)c5)cc4)CC3)c2)c(-c2ccc(Cl)cc2)n1C(C)C"
value_units = "%"
quantitative_readout = 84.2

[[record]]
compound = "C#Cc1c(F)ccc2cc(O)cc(-c3ncc4c(N5CC6CCC(C5)N6)nc(OCC56CCCN5CC(F)C6)nc4c3F)c12 (stereo unspecified) + Cc1c(S(C)(=O)=O)c(-c2cc(F)cc(N3CCN(c4ccc(NS(=O)(=O)c5ccc(NC(CCN6CCC(C(=O)OCCCP(=O)(O)O)CC6)CSc6ccccc6)c(S(=O)(=O)C(F)(F)F)c5)cc4)CC3)c2)c(-c2ccc(Cl)cc2)n1C(C)C"
value_units = "%"
quantitative_readout = 85.9

[[record]]
compound = "C#Cc1c(F)ccc2cc(O)cc(-c3ncc4c(N5CC6CCC(C5)N6)nc(OCC56CCCN5CC(F)C6)nc4c3F)c12 (stereo unspecified) + CNC(C)C(=O)NC1CN(S(=O)(=O)c2cccc(S(=O)(=O)N3CCC4CCC(C(=O)NC(c5ccccc5)c5ccccc5)N4C(=O)C(NC(=O)C(C)NC)C3)c2)CCC2CCC(C(=O)NC(c3ccccc3)c3ccccc3)N2C1=O"
value_units = "%"
quantitative_readout = 91.5

[[record]]
compound = "C=C(F)C(=O)N1CCN(c2nc(OCC3CCCN3C)nc3c2CCN(c2cccc4cccc(Cl)c24)C3)CC1CC#N (stereo unspecified) + Cc1c(S(C)(=O)=O)c(-c2cc(F)cc(N3CCN(c4ccc(NS(=O)(=O)c5ccc(NC(CCN6CCC(C(=O)OCCCP(=O)(O)O)CC6)CSc6ccccc6)c(S(=O)(=O)C(F)(F)F)c5)cc4)CC3)c2)c(-c2ccc(Cl)cc2)n1C(C)C"
value_units = "%"
quantitative_readout = 98.4

[[record]]
compound = "CCN1CCN(Cc2ccc(Nc3ncc(F)c(-c4cc(F)c5nc(C)n(C(C)C)c5c4)n3)nc2)CC1 + CNC(C)C(=O)NC1CN(S(=O)(=O)c2cccc(S(=O)(=O)N3CCC4CCC(C(=O)NC(c5ccccc5)c5ccccc5)N4C(=O)C(NC(=O)C(C)NC)C3)c2)CCC2CCC(C(=O)NC(c3ccccc3)c3ccccc3)N2C1=O"
value_units = "%"
quantitative_readout = 76

[[record]]
compound = "CNC(C)C(=O)NC1CN(S(=O)(=O)c2cccc(S(=O)(=O)N3CCC4CCC(C(=O)NC(c5ccccc5)c5ccccc5)N4C(=O)C(NC(=O)C(C)NC)C3)c2)CCC2CCC(C(=O)NC(c3ccccc3)c3ccccc3)N2C1=O (stereo unspecified) + Cc1c(S(C)(=O)=O)c(-c2cc(F)cc(N3CCN(c4ccc(NS(=O)(=O)c5ccc(NC(CCN6CCC(C(=O)OCCCP(=O)(O)O)CC6)CSc6ccccc6)c(S(=O)(=O)C(F)(F)F)c5)cc4)CC3)c2)c(-c2ccc(Cl)cc2)n1C(C)C"
value_units = "%"
quantitative_readout = 82.1

[[record]]
compound = "Cn1ncnc1[C@H]1c2n[nH]c(=O)c3cc(F)cc(c23)N[C@@H]1c1ccc(F)cc1 + CNC(C)C(=O)NC1CN(S(=O)(=O)c2cccc(S(=O)(=O)N3CCC4CCC(C(=O)NC(c5ccccc5)c5ccccc5)N4C(=O)C(NC(=O)C(C)NC)C3)c2)CCC2CCC(C(=O)NC(c3ccccc3)c3ccccc3)N2C1=O"
value_units = "%"
quantitative_readout = 62.2

[[record]]
compound = "O=C(c1ccc(F)c(F)c1Nc1ccc(I)cc1F)N1CC(O)([C@@H]2CCCCN2)C1 + Cc1c(S(C)(=O)=O)c(-c2cc(F)cc(N3CCN(c4ccc(NS(=O)(=O)c5ccc(NC(CCN6CCC(C(=O)OCCCP(=O)(O)O)CC6)CSc6ccccc6)c(S(=O)(=O)C(F)(F)F)c5)cc4)CC3)c2)c(-c2ccc(Cl)cc2)n1C(C)C"
value_units = "%"
quantitative_readout = 103

